details: in DMF, 313.15 K
experimental.readout: solubility (mole fraction)
Hey, just send me the number, nothing else.

For reference, reported solubility (mole fraction) for `CNc1nc(C)nc(OC)n1` stands at 0.386

###

conditions: in ethanol, 288.15 K
experimental.readout: solubility (mole fraction)
Hey, just send me the number, nothing else.

For reference, reported solubility (mole fraction) for `CNc1nc(C)nc(OC)n1` stands at 0.0655

###

settings: in ethylene glycol, 288.15 K
experimental.readout: solubility (mole fraction)
Hey, just send me the number, nothing else.

For reference, reported solubility (mole fraction) for `CNc1nc(C)nc(OC)n1` stands at 0.0273

Value source: BigSolDB 2.1
